# Measurement target: Histone-lysine N-methyltransferase, H3 lysine-79 specific (Homo sapiens, UniProt Q8TEK3)
Quantity kind: Kd (µM)
Answers are plain numbers, in µM.

## Input Can you share its Kd? I mean this molecule: "Fc1cccc(-c2nn3c(Cn4nnc5ccccc54)nnc3s2)c1"
## Output 17.3

###

# Measurement target: Histone-lysine N-methyltransferase, H3 lysine-79 specific (Homo sapiens, UniProt Q8TEK3)
# Assay remarks: Inhibition of N-terminal 6His-tagged human DOT1L (1 to 416 residues) expressed in Escherichia coli BL21(DE3) at 50 uM preincubated for 15 mins followed by [3H]-SAM addition measured after 120 mins by radioactive methylation assay
# Sequence (Q8TEK3 whole entry, looked up, the tested form may be a part): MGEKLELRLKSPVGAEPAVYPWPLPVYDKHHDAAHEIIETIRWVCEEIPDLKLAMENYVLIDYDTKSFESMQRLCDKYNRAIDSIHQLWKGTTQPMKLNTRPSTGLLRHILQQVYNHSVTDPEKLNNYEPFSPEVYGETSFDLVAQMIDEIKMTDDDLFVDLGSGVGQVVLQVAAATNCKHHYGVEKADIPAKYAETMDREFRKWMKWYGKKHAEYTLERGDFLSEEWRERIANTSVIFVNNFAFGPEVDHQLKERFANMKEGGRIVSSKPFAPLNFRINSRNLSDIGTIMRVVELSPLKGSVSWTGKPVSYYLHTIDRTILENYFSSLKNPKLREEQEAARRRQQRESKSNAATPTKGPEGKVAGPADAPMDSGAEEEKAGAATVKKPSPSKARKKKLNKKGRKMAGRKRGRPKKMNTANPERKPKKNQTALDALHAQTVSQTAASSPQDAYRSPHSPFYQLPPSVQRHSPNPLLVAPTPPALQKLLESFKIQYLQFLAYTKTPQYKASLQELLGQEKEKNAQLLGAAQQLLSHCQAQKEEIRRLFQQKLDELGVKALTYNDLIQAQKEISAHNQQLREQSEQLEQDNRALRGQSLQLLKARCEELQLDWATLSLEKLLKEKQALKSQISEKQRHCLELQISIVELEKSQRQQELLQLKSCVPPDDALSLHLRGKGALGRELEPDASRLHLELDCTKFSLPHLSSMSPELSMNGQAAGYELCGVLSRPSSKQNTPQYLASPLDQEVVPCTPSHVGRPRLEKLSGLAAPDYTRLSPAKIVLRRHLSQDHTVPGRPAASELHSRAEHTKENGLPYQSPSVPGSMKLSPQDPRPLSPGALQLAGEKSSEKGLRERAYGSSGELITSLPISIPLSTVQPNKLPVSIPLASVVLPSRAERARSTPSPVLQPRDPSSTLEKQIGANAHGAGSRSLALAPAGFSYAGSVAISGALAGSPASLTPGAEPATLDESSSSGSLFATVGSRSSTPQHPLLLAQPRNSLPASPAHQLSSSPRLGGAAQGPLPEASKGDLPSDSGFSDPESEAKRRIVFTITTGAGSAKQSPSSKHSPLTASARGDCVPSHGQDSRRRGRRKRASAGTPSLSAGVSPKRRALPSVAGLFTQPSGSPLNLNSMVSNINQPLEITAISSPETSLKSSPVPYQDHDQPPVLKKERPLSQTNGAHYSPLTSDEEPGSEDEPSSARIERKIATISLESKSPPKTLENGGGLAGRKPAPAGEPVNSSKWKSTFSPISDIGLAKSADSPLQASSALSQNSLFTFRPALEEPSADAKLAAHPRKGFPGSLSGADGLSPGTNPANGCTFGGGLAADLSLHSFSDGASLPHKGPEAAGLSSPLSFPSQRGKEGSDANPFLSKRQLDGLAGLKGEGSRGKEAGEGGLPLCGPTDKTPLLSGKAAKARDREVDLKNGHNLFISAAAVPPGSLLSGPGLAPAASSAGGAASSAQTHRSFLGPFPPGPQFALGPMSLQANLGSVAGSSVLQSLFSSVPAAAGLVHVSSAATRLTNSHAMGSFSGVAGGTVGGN
Quantity kind: inhibition (%)
One number for each entry, in %.

Compound | Measurement target | Data value
c1ccc(OCc2nn3c(Cn4nnc5ccccc54)nnc3s2)cc1 | Histone-lysine N-methyltransferase, H3 lysine-79 specific (Homo sapiens, UniProt Q8TEK3) | 43
Cc1ccccc1Cc1nnc2sc(-c3cccc(F)c3)nn12 | Histone-lysine N-methyltransferase, H3 lysine-79 specific (Homo sapiens, UniProt Q8TEK3) | 27
c1coc(-c2nn3c(Cn4nnc5ccccc54)nnc3s2)c1 | Histone-lysine N-methyltransferase, H3 lysine-79 specific (Homo sapiens, UniProt Q8TEK3) | 48
Fc1cccc(-c2nn3c(Cc4ccccc4F)nnc3s2)c1 | Histone-lysine N-methyltransferase, H3 lysine-79 specific (Homo sapiens, UniProt Q8TEK3) | 25
Cc1ccccc1-c1nn2c(Cn3nnc4ccccc43)nnc2s1 | Histone-lysine N-methyltransferase, H3 lysine-79 specific (Homo sapiens, UniProt Q8TEK3) | 55
COc1ccccc1-c1nn2c(Cn3nnc4ccccc43)nnc2s1 | Histone-lysine N-methyltransferase, H3 lysine-79 specific (Homo sapiens, UniProt Q8TEK3) | 55

Hi, could you look up inhibition for each item in my list?
1. c1ccc(Cc2nn3c(Cn4nnc5ccccc54)nnc3s2)cc1
2. Cc1ccc(-c2nn3c(Cn4cnc5ccccc54)nnc3s2)cc1C
3. Fc1cccc(-c2nn3c(Cc4ccccc4)nnc3s2)c1
4. Fc1cccc(-c2nn3c(CN4CCCCC4)nnc3s2)c1
5. Fc1cccc(-c2nn3c(-c4ccccc4)nnc3s2)c1
6. CC(C)(C)c1ccc(-c2nn3c(Cn4nnc5ccccc54)nnc3s2)cc1

## Output
1: 63; 2: 72; 3: 33; 4: 6; 5: 15; 6: 67
